This collection of values is drawn from paper PMC11249646.

For each record, write down the corresponding log10 of IC50.
Target: GST-CIB1 : F-scrambled peptide (Homo sapiens, UniProt Q99828)
Construct: made in house; host or cells: BL-21 plus RIL cells (E. coli)
Sequence (Q99828 1-191): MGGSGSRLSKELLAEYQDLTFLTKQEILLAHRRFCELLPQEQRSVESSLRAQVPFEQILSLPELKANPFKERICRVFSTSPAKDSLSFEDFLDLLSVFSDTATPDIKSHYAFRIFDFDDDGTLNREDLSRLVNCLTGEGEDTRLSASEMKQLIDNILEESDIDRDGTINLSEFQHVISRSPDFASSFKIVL
Assay: FP scrambled-peptide counter screen, 1536-well format
Type: binding
Conditions: counterscreen; read-out: IC50 [μM] (counterscreen)
The base-10 logarithm of IC50, taken with IC50 in µM, is what appears here.

Consider the following illustrative entries.
| compound | target_or_test_system | log10 of IC50 |
| --- | --- | --- |
| COc1ccccc1C(=O)/C=C1/C(=O)Nc2ccc(C)cc21.O=C(O)C(F)(F)F [NCGC00481357-01] | GST-CIB1 : F-scrambled peptide (Homo sapiens, UniProt Q99828) | 0.80 |
| COc1cc(C=C2C(=O)Nc3ccccc32)cc(OC)c1O [NCGC00343740-01] | GST-CIB1 : F-scrambled peptide (Homo sapiens, UniProt Q99828) | 1.65 |
| CCCCC(CC)CNC(=N)NC(=N)NCCCCCCNC(=N)NC(=N)NCC(CC)CCCC.Cl.Cl.Cl (centres unmarked) [NCGC00178352-06] | GST-CIB1 : F-scrambled peptide (Homo sapiens, UniProt Q99828) | 2.00 |
| N#Cc1ccc(NS(=O)(=O)c2ccc(Nc3nc(-c4ccccc4)cs3)cc2)cc1.O=C(O)C(F)(F)F [NCGC00262382-01] | GST-CIB1 : F-scrambled peptide (Homo sapiens, UniProt Q99828) | 1.65 |
| CCNC(=O)c1ccc(-c2ccc3ncnc(N4CCOCC4)c3c2)o1.O=C(O)C(F)(F)F [NCGC00238377-01] | GST-CIB1 : F-scrambled peptide (Homo sapiens, UniProt Q99828) | 1.65 |
| CC(C)c1ccccc1Cc1cc(C(=O)Nc2ccc(S(=O)(=O)c3ccccc3C(C)(C)C)cc2)c(O)c(O)c1O [NCGC00263208-01] | GST-CIB1 : F-scrambled peptide (Homo sapiens, UniProt Q99828) | 1.20 |
| Cl.O=[N+]([O-])c1cccc(CNc2ccc(S(=O)(=O)Nc3nccs3)cc2)c1O [NCGC00273554-01] | GST-CIB1 : F-scrambled peptide (Homo sapiens, UniProt Q99828) | 1.70 |

Now examine the next entry.
Using the record for CCOC(=O)C1CCN(C(=O)C(C)(C)NC(=O)Nc2ccc(C#N)cc2)CC1.O=C(O)C(F)(F)F [NCGC00242565-01] , report its log10 of IC50.
1.20

###

Would you kindly list GSH/CIB1 IC50 ratio for each of these compounds?
target: GST-CIB1 : F-αIIb peptide (Homo sapiens, UniProt Q99828); construct: made in house; host or cells: BL-21 plus RIL cells (E. coli); experiment: FP assay in the presence of glutathione (GSH), thiol reactivity; type: binding; settings: ratio of GSH (+) IC50 to GSH (-) IC50
One number for each entry.

# example entries with known answers
| compound | GSH/CIB1 IC50 ratio |
| --- | --- |
| COc1ccc(CNC(=O)c2nc(S(=O)(=O)Cc3ccccc3)ncc2Cl)cc1.O=C(O)C(F)(F)F | 1.3 |
| CC(C)=CCC[C@]1(C)C=Cc2c(O)c3c(c(CC=C(C)C)c2O1)O[C@]12C(=C[C@@H]4CC1C(C)(C)O[C@@]2(C/C=C(/C)C(=O)O)C4=O)C3=O | 1.2 |
| COc1cccc(-n2c(SCc3cc(=O)oc4cc(O)c(O)cc34)nc3ccccc3c2=O)c1.O=C(O)C(F)(F)F | 0.8 |
| CN(C)C(=S)SSC(=S)N(C)C [NCGC00091563-02, thiram, reference compound] | 8.3 |
| O=C(c1cccs1)c1no[n+]([O-])c1C(=O)c1cccs1 | 0.5 |
| S=C(SSC(=S)N1CCCCC1)N1CCCCC1 | 30.8 |

Please turn your attention to the following entry.
Notebook: pull reported GSH/CIB1 IC50 ratio for GST-CIB1 : F-αIIb peptide (Homo sapiens, UniProt Q99828), entry CCN(CC)C(=S)SSC(=S)N(CC)CC [NCGC00016000-13, disulfiram, reference compound]
8.5
